Experiment: Food effect study, oral capsule, plasma PK in non-human primate
Format: in vivo, Cynomolgus monkeys
Conditions: cynomolgus monkey, plasma, oral, 3 mg/kg, Group 2 (fed), 3 mg/kg, 8 h, N=3; read-out: Mean plasma concentration
READOUT LABEL: concentration at 8 h (ng/mL)
Answer format: numeric, ng/mL implied, no suffix.

## Input Tell me the measured concentration at 8 h of `Cc1cc(N2CCc3cc(F)ccc3C2)cc(C)c1NC(=O)CC(C)(C)C` , please.
## Output 55.4

###

Assay: TMS crossover study, pharmacokinetic analysis
Assay type: in vivo, human
Details: male, human, plasma, oral, 20 mg, Period 1 (N=10), Median
READOUT LABEL: Tmax (h)
# value in h; strip the unit string

## Input Could you tell me which Tmax is on file for `Cc1cc(N2CCc3cc(F)ccc3C2)cc(C)c1NC(=O)CC(C)(C)C` ?
## Output 6.94

###

Assay: TMS crossover study, pharmacokinetic analysis
Assay type: in vivo, human
Details: male, human, plasma, oral, 20 mg, Full PK Profile (N=16), Median
READOUT LABEL: Tmax (h)
The answer is to be given in h; state only the numeric part.

## Input Dear colleague, I am looking for the recorded Tmax of the following compound: `Cc1cc(N2CCc3cc(F)ccc3C2)cc(C)c1NC(=O)CC(C)(C)C`
## Output 6.83

###

Test: TMS crossover study, pharmacokinetic analysis
Type: in vivo, human
Conditions: male, human, plasma, oral, 20 mg, Period 2 (N=10), Range; read-out: AUC0-24
READOUT LABEL: AUC(0-t)

## Input Returns the measured AUC(0-t) for the input compound. Input: Cc1cc(N2CCc3cc(F)ccc3C2)cc(C)c1NC(=O)CC(C)(C)C [Compound A]
## Output 358 to 869 ng·h/mL

###

Assay: First-in-human SAD and MAD study, pharmacokinetics
Type: in vivo
Conditions: human, plasma, oral, 15 mg, MAD, 15 mg QD Fasted, Day 7, N=6, mean; read-out: AUC0-24
READOUT LABEL: AUC(0-t)

## Input Tell me the measured AUC(0-t) of `Cc1cc(N2CCc3cc(F)ccc3C2)cc(C)c1NC(=O)CC(C)(C)C` , please.
## Output 757 ng·h/mL

###

Experiment: First-in-human SAD and MAD study, pharmacokinetics
Assay type: in vivo
Settings: human, plasma, oral, 15 mg, SAD, 15 mg fasted, N=3, Mean ± SD; read-out: AUC0-24
READOUT LABEL: AUC(0-t) (ng·h/mL)
Express the result in ng·h/mL but write the number alone.

## Input Data request, read-out AUC(0-t), for `Cc1cc(N2CCc3cc(F)ccc3C2)cc(C)c1NC(=O)CC(C)(C)C`
## Output 328

###

Experiment: Food effect study, oral capsule, plasma PK in non-human primate
Type: in vivo, Cynomolgus monkeys
Details: cynomolgus monkey, plasma, oral, 3 mg/kg, Group 2 (fed), 3 mg/kg, 1 h, N=3; read-out: Mean plasma concentration
READOUT LABEL: concentration at 1 h (ng/mL)
// return numeric value only (unit: ng/mL, not printed)

## Input // concentration at 1 h lookup, key: `Cc1cc(N2CCc3cc(F)ccc3C2)cc(C)c1NC(=O)CC(C)(C)C`
## Output 1.25

###

Assay: First-in-human SAD and MAD study, pharmacokinetics
Assay type: in vivo
Conditions: human, plasma, oral, 20 mg, SAD, 20 mg fasted, N=6, Mean ± SD; read-out: AUC0-24
READOUT LABEL: AUC(0-t)

## Input Any idea what AUC(0-t) was measured for `Cc1cc(N2CCc3cc(F)ccc3C2)cc(C)c1NC(=O)CC(C)(C)C` ?
## Output 376 ng·h/mL

###

Assay: First-in-human SAD and MAD study, pharmacokinetics
Assay type: in vivo
Conditions: human, plasma, oral, 15 mg, MAD, 15 mg Fed, Day 1, N=6, mean
READOUT LABEL: Cmax (ng/mL)
API: value field is a number in ng/mL; no unit string.

## Input Field request: Cmax | item: Cc1cc(N2CCc3cc(F)ccc3C2)cc(C)c1NC(=O)CC(C)(C)C [Compound A]
## Output 35.9

###

Assay: First-in-human SAD and MAD study, pharmacokinetics
Assay type: in vivo
Details: human, plasma, oral, 25 mg, SAD, 25 mg fed standard breakfast, N=6, Mean ± SD
READOUT LABEL: Tmax

## Input Need Tmax, item `Cc1cc(N2CCc3cc(F)ccc3C2)cc(C)c1NC(=O)CC(C)(C)C`
## Output 4.51 h

###

Experiment: Food effect study, oral capsule, plasma PK in non-human primate
Type: in vivo, Cynomolgus monkeys
Settings: cynomolgus monkey, plasma, oral, 3 mg/kg, Group 1 (fasted), 3 mg/kg, 0.5 h, N=3; read-out: Mean plasma concentration
READOUT LABEL: concentration at 0.5 h (ng/mL)
Report the figure in ng/mL without appending any unit label.

## Input Field request: concentration at 0.5 h | item: `Cc1cc(N2CCc3cc(F)ccc3C2)cc(C)c1NC(=O)CC(C)(C)C`
## Output 0

###

Assay: TMS crossover study, pharmacokinetic analysis
Assay type: in vivo, human
Conditions: male, human, plasma, oral, 20 mg, Full PK Profile (N=16), Range; read-out: Cmax
READOUT LABEL: Cmax

## Input What value of Cmax has been reported for the following molecule? Cc1cc(N2CCc3cc(F)ccc3C2)cc(C)c1NC(=O)CC(C)(C)C [Compound A]
## Output 29.9 to 79.4 ng/mL

###

Assay: Food effect study, oral capsule, plasma PK in non-human primate
Type: in vivo, Cynomolgus monkeys
Conditions: cynomolgus monkey, plasma, po, 3 mg/kg, fasted, 3 mg/kg oral, plasma, 12 h, individual animals; read-out: Concentration
READOUT LABEL: concentration at 12 h (ng/mL)
Answer with a number only, understood to be in ng/mL.

## Input Endpoint output: concentration at 12 h of Cc1cc(N2CCc3cc(F)ccc3C2)cc(C)c1NC(=O)CC(C)(C)C [Compound A] . Value?
## Output 38.3

###

Assay: TMS crossover study, pharmacokinetic analysis
Assay type: in vivo, human
Conditions: male, human, plasma, oral, 20 mg, Compound A Treatment Period, 4 h, Mean
READOUT LABEL: concentration at 4 h (ng/mL)
Note: unit ng/mL is implicit; provide only the numeric part.

## Input So what does the record say about concentration at 4 h for Cc1cc(N2CCc3cc(F)ccc3C2)cc(C)c1NC(=O)CC(C)(C)C [Compound A] ?
## Output 30.1

###

Assay: Transcranial magnetic stimulation pilot study (RMT/AMT, TEPs, rEEG)
Settings: male, human, in vivo, 20 mg
READOUT LABEL: concentration at 4 h (ng/mL)
Record the value in ng/mL, omitting the unit from your answer.

## Input Fill in: concentration at 4 h of Cc1cc(N2CCc3cc(F)ccc3C2)cc(C)c1NC(=O)CC(C)(C)C [Compound A] is ___
## Output 50

###

Experiment: TMS crossover study, pharmacokinetic analysis
Format: in vivo, human
Conditions: male, human, plasma, oral, 20 mg, Period 2 (N=10), Range; read-out: Cmax
READOUT LABEL: Cmax

## Input Bench note: what Cmax did `Cc1cc(N2CCc3cc(F)ccc3C2)cc(C)c1NC(=O)CC(C)(C)C` show?
## Output 46.2 to 79.4 ng/mL

###

Assay: Food effect study, oral capsule, plasma PK in non-human primate
Format: in vivo, Cynomolgus monkeys
Conditions: Cynomolgus (Vietnamese origin), cynomolgus monkey, plasma, po, 3 mg/kg, Group 2 (fed), 3 mg/kg capsule, individual subjects
READOUT LABEL: AUC(0-t)

## Input If you can, please state the reported AUC(0-t) value of `Cc1cc(N2CCc3cc(F)ccc3C2)cc(C)c1NC(=O)CC(C)(C)C` .
## Output 1120 ng·h/mL

###

Experiment: TMS crossover study, pharmacokinetic analysis
Assay type: in vivo, human
Conditions: male, human, plasma, oral, 20 mg, Overall (N=20), Range; read-out: Cmax
READOUT LABEL: Cmax

## Input What Cmax value was documented for this compound, `Cc1cc(N2CCc3cc(F)ccc3C2)cc(C)c1NC(=O)CC(C)(C)C` ?
## Output 29.9 to 79.4 ng/mL

###

Experiment: TMS crossover study, pharmacokinetic analysis
Assay type: in vivo, human
Conditions: male, human, plasma, oral, 20 mg, Full PK Profile Data Set (N=16), Range; read-out: CL/F normalized (converted)
READOUT LABEL: CL/F (mL/min/kg)
// return numeric value only (unit: mL/min/kg, not printed)

## Input Suppose we examine the molecule Cc1cc(N2CCc3cc(F)ccc3C2)cc(C)c1NC(=O)CC(C)(C)C [Compound A] ; what CL/F value has been reported?
## Output 0.672

###

Experiment: TMS crossover study, pharmacokinetic analysis
Assay type: in vivo, human
Conditions: male, human, plasma, oral, 20 mg, Period 1 (N=10), Range; read-out: AUC0-24
Procedure: A randomized, double-blind, placebo-controlled, transcranial magnetic stimulation (TMS) crossover study investigated the safety, tolerability, pharmacokinetics (PK), and pharmacodynamics (PD) of single doses of Compound A in healthy right-handed male subjects. […] The PK parameters for this study were summarized in two ways. Firstly, PK parameters were calculated where possible using the PK samples collected during each 24 h sampling period for Period 1 and Period 2 separately. […]
READOUT LABEL: AUC(0-t)

## Input Consider the compound shown here: `Cc1cc(N2CCc3cc(F)ccc3C2)cc(C)c1NC(=O)CC(C)(C)C` What is its recorded AUC(0-t)?
## Output 383 to 951 ng·h/mL
